Test system: OVCAR-8 ovarian
assay.name: NCI tumour cell line growth inhibition, 384-well format
endpoint.label: GI50

Here's what some known entries look like.
COCCOCCOCCOCCOC(=O)OC[n+]1ccc(NC(=NCCCCCCOc2ccc(Cl)cc2)NC#N)cc1 ... < 0.01 µM
N#CCNC(=O)c1ccc(-c2ccnc(Nc3ccc(N4CCOCC4)cc3)n2)cc1 ... 3.68 µM
COc1ccc(COc2cc3oc(=O)c4cc(C(C)O)ccc4c3cc2OC)cc1 (centres undefined) ... 12.6 µM

Which measured GI50 value corresponds to "COc1ccc(S(=O)(=O)N2CCNCC2)cc1OC" ?
> 100 µM

* * *

Recorded GI50 values (MDA-MB-435 melanoma) are given below.

COc1ccc(S(=O)(=O)N2CCNCC2)cc1OC ... > 100 µM

Form: Entry = COc1ccc(COc2cc3oc(=O)c4cc(C(C)O)ccc4c3cc2OC)cc1 (centres undefined) | System = MDA-MB-435 melanoma | GI50 = ____
2.09 µM

Now try "S=C(NCc1ccc2c(c1)OCO2)N1CCN(c2ncnc3c2oc2ccccc23)CC1" .
72.4 µM

Now give it for "O=C(c1cc(Cc2n[nH]c(=O)c3ccccc23)ccc1F)N1CCN(C(=O)C2CC2)CC1" too.
> 100 µM

Hey, just so you know, these numbers are from PubChem BioAssay (NCI).
